Reference source: PubChem BioAssay AID1159580

# RUN_DESCRIPTION: chemical genetic growth profiling, strain panel (AID 1159580);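 further: tested at 20 µM; growth read once vehicle control cultures reached saturation at 30 °C; 1 = growth at the plate median or of vehicle wells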
# RUN_CONDITIONS: S. cerevisiae deletion strains, growth OD, locus YDR195W, strain ref2
Among all 5,500 compounds or so, about 2,000 (36%) were called active. About 18% were inconclusive and are not listed. No stated cut-off is given here; in the data, active means normalized growth mostly below about 0.91 (no sharp cut-off); inconclusive means no clear call, values can overlap the other calls; inactive means mostly above about 0.92. Some of the results follow.
Tick one outcome: t for active, f for inactive

>>> label_value("CCCCCCCC/C=C/CCCCCCCCOP(=O)([O-])OCC[N+](C)(C)C")
"t"

Req: Given Cc1cc(OC(=O)N2CCCCC2)c(C(C)C)cc1[N+](C)(C)C , state the outcome it received in this test.
Resp: f

Req: Given CCCCCC(=O)O[C@]1(C(C)=O)CCC2C3CCC4=CC(=O)CC[C@]4(C)C3CC[C@@]21C (some centres not stated) , state the outcome it received in this test.
Resp: f

Req: Given CCC1(c2ccccc2)C(=O)NCNC1=O , state the outcome it received in this test.
Resp: f

Req: Given S=C=NCc1ccccc1 , state the outcome it received in this test.
Resp: t

Req: Given O=c1ccc2cc(O)c(O)cc2o1 , state the outcome it received in this test.
Resp: f

Req: Given CC(=O)CC(=O)CCC(=O)O , state the outcome it received in this test.
Resp: f

----------
# RUN_DESCRIPTION: chemical genetic growth profiling, strain panel (AID 1159580);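 further: tested at 20 µM; growth read once vehicle control cultures reached saturation at 30 °C; 1 = growth at the plate median or of vehicle wells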
# RUN_CONDITIONS: S. cerevisiae deletion strains, growth OD, locus YMR307W, strain GAS1, hits give low values
About 2,000 (36%) of roughly 5,500 compounds were called active. Another 18% or so got no clear call; they are omitted. The list shows a part of the results.
Friendly reminder: normalized growth below 1 is MET, at or above is NOT MET.

These recorded examples may help you get a feel for the data.
>>> label_value("O=C(O)C1CC([C@@H]2CCCCN2)CN2CCCCC12 (stereo partly specified)")
"NOT MET"
>>> label_value("OCc1ccccc1O[C@@H]1O[C@H](CO)[C@@H](O)[C@H](O)[C@H]1O")
"NOT MET"

Req: Field: below-cutoff. Rule: recorded normalized growth strictly less than 1. Subject: CC(C)=CCc1c(O)cc2oc(C)cc(=O)c2c1O
Resp: MET

Req: Field: below-cutoff. Rule: recorded normalized growth strictly less than 1. Subject: C=CC1=C(C(=O)O)N2C(=O)[C@@H](NC(=O)/C(=N/O)c3csc(N)n3)[C@H]2SC1
Resp: NOT MET

----------
# RUN_DESCRIPTION: chemical genetic growth profiling, strain panel (AID 1159580);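 further: tested at 20 µM; growth read once vehicle control cultures reached saturation at 30 °C; 1 = growth at the plate median or of vehicle wells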
# RUN_CONDITIONS: S. cerevisiae deletion strains, growth OD, strain NNK1, hits give low values
Screen size: about 5,500 compounds; about 2,000 (36%) were called active. Not shown: some 18% with an inconclusive outcome. Some of the results follow.
Here, each record is paired with measured normalized growth data.
Form: value (number only, do not type unit).

>>> measured_number("N#C/C(=C\\c1ccccc1Sc1ccc(Cl)cc1)S(=O)(=O)c1ccccn1")
0.964

Req: Complete the entry with normalized growth for O=C(NCc1ccco1)c1ccc(Oc2cc(Cl)cc(Cl)c2)o1
Resp: 0.942

Req: Complete the entry with normalized growth for S=C(Nc1cc(-c2cccs2)[nH]n1)Nc1ccccc1Cl
Resp: 0.94

Req: Complete the entry with normalized growth for O=C(CCN1CCCCC1)c1ccc(-c2ccccc2)cc1
Resp: 0.966

Req: Complete the entry with normalized growth for N#C/C(=N/Nc1ccccc1Cl)S(=O)(=O)c1ccc(Cl)cc1
Resp: 0.952

Req: Complete the entry with normalized growth for C=CC(=O)N1CCc2cc([N+](=O)[O-])ccc21
Resp: 0.824

Req: Complete the entry with normalized growth for O=C(Oc1cc(Cl)c(Cl)cc1Cl)C1c2ccccc2Oc2ccccc21
Resp: 0.927

Req: Complete the entry with normalized growth for COc1ccc(NC(=O)O/N=C(/N)c2ccc(Oc3c(Cl)cncc3Cl)cc2)cc1
Resp: 1

----------
Here, each record is paired with measured normalized growth data.
# RUN_DESCRIPTION: chemical genetic growth profiling, strain panel (AID 1159580);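 further: tested at 20 µM; growth read once vehicle control cultures reached saturation at 30 °C; 1 = growth at the plate median or of vehicle wells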
# RUN_CONDITIONS: S. cerevisiae deletion strains, growth OD, locus YGR135W, strain pre9, hits give low values
Screen size: about 5,500 compounds; about 2,000 (36%) were called active. Another 18% or so got no clear call; they are omitted. The list shows a part of the results.

Some solved cases for reference:
>>> result("Cc1cc(=O)c2c(O)c(C)c(O)cc2o1")
"0.932 (inactive)"
>>> result("OC(CCN1CCCCC1)(c1ccccc1)c1ccccc1")
"1.01 (inactive)"
>>> result("CN1Cc2c(ccc3c2OCO3)C2C(O)Cc3cc4c(cc3C21)OCO4 (configuration not stated)")
"0.98 (inactive)"
>>> result("Cc1c(N(C)C)c(=O)n(-c2ccccc2)n1C")
"0.991 (inactive)"
>>> result("CC(=O)OCC(CCn1cnc2cnc(N)nc21)COC(C)=O")
"0.974 (inactive)"
>>> result("Cn1cc[nH]c1=S")
"0.938 (inactive)"
>>> result("N#Cc1c(Cl)c(Cl)c(Cl)c(C#N)c1Cl")
"0.998 (inactive)"
>>> result("Cc1cc(=O)c2c(O)cc(O)c(C)c2o1")
"0.965 (inactive)"
>>> result("CNc1ccccc1C(=O)N1CCc2c([nH]c3ccccc23)C1=O")
"1 (inactive)"
>>> result("NC[C@@H]1O[C@H](O[C@@H]2[C@@H](CO)OC(O[C@@H]3[C@@H](O)[C@H](N)C[C@H](N)[C@H]3OC3O[C@H](CN)[C@@H](O)[C@H](O)[C@H]3N)[C@@H]2O)[C@H](N)[C@@H](O)[C@@H]1O (some centres not stated)")
"1.07 (inactive)"

Req: Complete the entry with normalized growth for O=C(O)c1ccccc1OP(=O)(O)O
Resp: 0.988 (inactive)

Req: Complete the entry with normalized growth for CCC(C(N)=O)c1ccccc1 (configuration not stated)
Resp: 1 (inactive)

Req: Complete the entry with normalized growth for CCc1nc(N)nc(N)c1-c1ccc(Cl)cc1
Resp: 0.979 (inactive)

Req: Complete the entry with normalized growth for COC1C(O)C(O)C(O)[C@@H](O)C1O (some centres not stated)
Resp: 1.01 (inactive)

Req: Complete the entry with normalized growth for CCOC(=O)/C=C(\C)OP(=O)(OC)OC
Resp: 0.988 (inactive)

Req: Complete the entry with normalized growth for O=[N+]([O-])O[C@H]1CO[C@H]2[C@@H]1OC[C@H]2O[N+](=O)[O-]
Resp: 1.04 (inactive)

Req: Complete the entry with normalized growth for CN1C2CC3C[C@H]1C(O3)C2O (some centres not stated)
Resp: 1.02 (inactive)

Req: Complete the entry with normalized growth for COC(=O)[C@H]1[C@H]2C[C@H]3c4[nH]c5ccccc5c4CCN3C[C@H]2CC[C@@H]1O
Resp: 0.988 (inactive)

Req: Complete the entry with normalized growth for COc1ccc(CC2c3cc(OC)c(OC)cc3CCN2C)cc1OC (configuration not stated)
Resp: 0.957 (inactive)

Req: Complete the entry with normalized growth for CO[C@H]1C[C@H](O[C@H]2[C@H](C)[C@@H](OC3O[C@H](C)C[C@H](N(C)C)[C@H]3O)[C@@H](C)C[C@]3(CO3)C(=O)[C@H](C)[C@@H](O)[C@@H](C)[C@@H](C)OC(=O)[C@@H]2C)O[C@@H](C)[C@@H]1O (some centres not stated)
Resp: 1.01 (inactive)

Req: Complete the entry with normalized growth for COc1ccc2c(c1)OC[C@@H](Cc1ccc(OC)c(OC)c1)[C@H]2O
Resp: 0.99 (inactive)

Req: Complete the entry with normalized growth for CCCCCC(=O)O[C@]1(C(C)=O)CCC2C3CCC4=CC(=O)CC[C@]4(C)C3CC[C@@]21C (some centres not stated)
Resp: 1.01 (inactive)

Req: Complete the entry with normalized growth for CC1(C)C2CC[C@]3(C)C(C(=O)C=C4[C@@H]5C[C@@](C)(C(=O)O)CC[C@]5(C)CC[C@]43C)[C@@]2(C)CC[C@@H]1OC(=O)CCC(=O)O (some centres not stated)
Resp: 0.96 (inactive)

Req: Complete the entry with normalized growth for OCc1ccccc1O[C@@H]1O[C@H](CO)[C@@H](O)[C@H](O)[C@H]1O
Resp: 1.07 (inactive)

Req: Complete the entry with normalized growth for C=CC1=C(C(=O)O)N2C(=O)[C@@H](NC(=O)/C(=N/O)c3csc(N)n3)[C@H]2SC1
Resp: 0.991 (inactive)

Req: Complete the entry with normalized growth for OCCN(CCO)c1nc(N2CCCCC2)c2nc(N(CCO)CCO)nc(N3CCCCC3)c2n1
Resp: 0.993 (inactive)

Req: Complete the entry with normalized growth for CC(C)=CCc1c(O)cc2oc(C)cc(=O)c2c1O
Resp: 1 (inactive)

Req: Complete the entry with normalized growth for NC(N)=NOCC[C@H](N)C(=O)O
Resp: 1.03 (inactive)

Req: Complete the entry with normalized growth for COC(=O)c1c(Cl)c(Cl)c(C(=O)OC)c(Cl)c1Cl
Resp: 0.994 (inactive)
